Biological target: VHL (VBC complex: pVHL54-213, eloB1-104, eloC17-112) (Homo sapiens, UniProt P40337)
Construct: equimolar complex of pVHL54-213, eloB1-104 and; made in house; host or cells: E. coli
Sequence (P40337 54-213): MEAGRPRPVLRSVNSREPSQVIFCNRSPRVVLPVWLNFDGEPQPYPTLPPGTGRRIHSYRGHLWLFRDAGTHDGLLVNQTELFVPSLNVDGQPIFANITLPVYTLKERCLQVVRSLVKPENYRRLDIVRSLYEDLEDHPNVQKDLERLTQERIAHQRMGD
Sequence (Q15370 1-104 partner limits assumed): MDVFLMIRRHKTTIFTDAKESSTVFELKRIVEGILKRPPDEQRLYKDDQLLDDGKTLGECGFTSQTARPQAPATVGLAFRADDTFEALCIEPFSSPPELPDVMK
Sequence (Q15369 17-112 partner limits assumed): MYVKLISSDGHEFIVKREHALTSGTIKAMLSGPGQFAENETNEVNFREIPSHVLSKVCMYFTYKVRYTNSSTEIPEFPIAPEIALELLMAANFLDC
Assay: Surface plasmon resonance (SPR) steady-state binding to immobilised biotinylated AviVBC
Settings: SPR, 20 °C, steady-state 1:1 fit; footnote b values fitted because RMAX was not reached experimentally; read-out: K D, SPR
Method: The KD of each compound to VHL was determined by surface plasmon resonance (SPR) experiments. 3. Protein expression, purification and biotinylation […] Where Req is the steady-state response at a given concentration C. […] KD is the dissociation constant to be determined and RMAX is the maximum response expected for a given compound according to the equation below: […]
Readout: Kd

Worked set:
Task item: Given the compound Cc1ncsc1-c1ccc(CNC(=O)[C@@H]2C[C@@H](O)CN2)cc1C(F)(F)F , what is its reported Kd?
Reply: > 1.5 mM

Task item: Given the compound O=C(NCc1ccc(Br)c(C(F)(F)F)c1)[C@@H]1C[C@@H](O)CN1 , what is its reported Kd?
Reply: > 1.5 mM

Moving on to the next compound.
Task item: Given the compound O=C(NCc1ccc(Br)cc1C(F)(F)F)[C@@H]1C[C@@H](O)CN1 , what is its reported Kd?
Reply: > 1.5 mM
